The reported measurements were obtained from PubChem BioAssay.

Here the recorded z-score is given for each entry.
Method Notes: changes in parasitized red cell lysis, either direction – P. falciparum Indochina, OD700, 3 h, PSAC antagonist project, primary screen (AID 1156)
Assay Setup: P. falciparum-infected erythrocytes, osmotic lysis, higher = more signal, called active from +8 up or from −8 down

Compound	z-score
O=C(NCC(O)CO)[C@]1(CCS(=O)(=O)c2ccccc2)N=C(c2ccc(OCCCO)cc2)O[C@@H]1c1ccccc1 (some centres undefined)	1.61
O=C1O[C@@H](c2ccccc2)[C@@H](c2ccccc2)N2[C@@H](c3ccc(O)cc3)[C@]3(C(=O)Nc4ccccc43)[C@@H](C(=O)NC[C@H](O)c3ccccc3)[C@H]12	-1.22
C=C(/C(=C/C[C@@H](OC(=O)c1ccncc1)c1ccc(CO)o1)c1cc(C(=O)OC)ccc1OC)C(C)C	2.63
C[n+]1ccc2ccc(O)cc2c1	1.95
[N-]=[N+]=NCc1ccccc1C[C@]1(C(=O)NCc2ccccc2)COC(c2ccc(OCCCO)cc2)=N1	4.42
COc1ccc(C(O)C2C=CC3C(=O)N(c4ccccc4)C(=O)C3N2Nc2ccccc2)c2ccccc12 (centres undefined)	0.303
CN1C(=O)C2C=CC(C(O)C3=C[C@H]4C[C@@H](C3)C4(C)C)N(Nc3ccc([N+](=O)[O-])cc3[N+](=O)[O-])C2C1=O (some centres undefined)	1.06
C=CCNC(=O)[C@H]1[C@@H]2C(=O)O[C@@H](c3ccccc3)[C@@H](c3ccccc3)N2[C@@H](c2ccc(O)cc2)[C@]12C(=O)Nc1ccc(C#Cc3ccc(OC)cc3)cc12	-0.99
O=C1OCCC=C[C@H]2OC34C=CCN(c5ccc6ccccc6c5)C(=O)[C@H]3N(CCCCCCO)C(=O)[C@@H]4C12 (some centres undefined)	0.738
O=C1C[C@@](C(=O)O)(c2ccc([N+](=O)[O-])cc2)[C@@H](c2ccc(CO)cc2I)N1C1CCCCC1	3.02
CC(C)[C@H]1COC(=O)N1C(=O)[C@H]1[C@@H](c2ccccc2)N(c2ccccc2)O[C@@H]1C	-0.648
CN(C)CCCC[C@@H]1NC(=O)[C@@H]2C[C@H](C(=O)NCCCCCN)[C@H](c3ccc(O)cc3)N2C1=O	0.494
COc1ccc(C#Cc2ccc3c(c2)[C@]2(C(=O)N3)[C@H](C(=O)N3CCN(c4ncccn4)CC3)[C@H]3C(=O)O[C@H](c4ccccc4)[C@H](c4ccccc4)N3[C@@H]2c2ccc(O)cc2)cc1	0.474
C=CCOC(=O)[C@@H]1[C@H]2C(=O)O[C@H](c3ccccc3)[C@H](c3ccccc3)N2[C@H](c2ccc(OCCOC(=O)[C@H]3C[C@H]4C(=O)N[C@@H](CCCC[N+](C)(C)C)C(=O)N4[C@H]3c3cccc(OCCO)c3)cc2)[C@@]12C(=O)Nc1ccc(I)cc12	1.59
